Entries annotated with measured pKd
- systemTested: mAb 6D8
- assay: SPR binding of synthetic MSP2 peptides to immobilized (captured) mAb 6D8
- Design: species or system mouse
- measurementParameters: Biacore T200, mAb 6D8 captured with Mouse Antibody Capture kit, peptides in 20 mM HEPES, 150 mM NaCl, 3 mM EDTA, 0.05 % Tween20, pH 7.4, from concentration dependence of steady-state responses, ± standard deviation of three replicate experiments
pKd field: float, defined as -log10 of concentration (mol/L).

Known results for substances:
>  <substance>
Ac-AYNMSIRR-NH2 [MSP2_15-22]

>  <readoutLabel>
pKd

>  <dataValue>
7.06

$$$$
>  <substance>
Ac-FINNAYNMSIRRS-NH2 [MSP2_11-23]

>  <readoutLabel>
pKd

>  <dataValue>
8.22

$$$$
>  <substance>
Ac-AYNMSIRRS-NH2 [MSP2_15-23]

>  <readoutLabel>
pKd

>  <dataValue>
7.47

$$$$

Read the next record carefully.
q: For mAb 6D8, provide pKd of Ac-NAYNMSIRR-NH2 [MSP2_14-22] please.
a: 8.22
